measuredTarget: Rat FAAH (Rattus norvegicus)
Construct: expressed in transfected cells; host or cells: SK-N-MC cells stably transfected with rat FAAH cDNA (G418 selection)
Sequence (P97612 whole entry): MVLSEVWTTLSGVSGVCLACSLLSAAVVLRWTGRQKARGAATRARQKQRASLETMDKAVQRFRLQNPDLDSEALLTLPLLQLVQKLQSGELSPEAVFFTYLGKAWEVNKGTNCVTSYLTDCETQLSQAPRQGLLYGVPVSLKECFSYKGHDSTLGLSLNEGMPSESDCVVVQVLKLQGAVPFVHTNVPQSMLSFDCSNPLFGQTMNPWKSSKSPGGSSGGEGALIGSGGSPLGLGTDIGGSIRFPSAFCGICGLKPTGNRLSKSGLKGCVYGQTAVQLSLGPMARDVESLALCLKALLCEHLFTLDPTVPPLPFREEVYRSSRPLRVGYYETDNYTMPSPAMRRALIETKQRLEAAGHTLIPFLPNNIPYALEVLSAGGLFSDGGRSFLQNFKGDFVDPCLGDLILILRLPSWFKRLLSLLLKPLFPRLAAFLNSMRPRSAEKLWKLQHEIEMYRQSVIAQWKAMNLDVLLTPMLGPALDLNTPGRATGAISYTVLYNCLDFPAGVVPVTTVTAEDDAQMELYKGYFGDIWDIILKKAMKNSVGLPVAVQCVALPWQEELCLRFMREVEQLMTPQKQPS
testName: Assay Method 2: rat FAAH assay (3H-anandamide hydrolysis in cell homogenate)
Format: biochemical
testParameters: read-out: Assay 2 IC50
pIC50: −log10 of the molar value. Where a name gives a salt, the structure may show the parent alone.
measureName: pIC50

For orientation, consider the following solved cases.
Data request: Which pIC50 is reported for this compound? O=C(Nc1ccc(-n2cncn2)nc1)N1CC2(CCN(Cc3cccc(Oc4ccc(Cl)cc4)c3)CC2)C1 [Example 46, trifluoroacetic acid salt]
Data returned: 6.00

Data request: Which pIC50 is reported for this compound? O=C(Nc1ccnc(C(F)(F)F)n1)N1CC2(CCN(Cc3cccc(Oc4ccc(Cl)cc4)c3)CC2)C1 [Example 71, trifluoroacetic acid salt]
Data returned: 5.30

Data request: Which pIC50 is reported for this compound? O=C(Nc1cccnc1)N1CCC2(CCCN(Cc3cccc(Oc4ccc(Cl)cc4)c3)C2)CC1 [Example 22]
Data returned: 5.96

Data request: Which pIC50 is reported for this compound? O=C(Nc1ccc(-n2nccn2)nc1)N1CCCC2(CN(Cc3cccc(Oc4ccc(Cl)cc4)c3)C2)C1 [Example 27]
Data returned: 6.70

Data request: Which pIC50 is reported for this compound? O=C(Nc1noc2ccccc12)N1CC2(CCN(Cc3cccc(Oc4ccc(Cl)cc4)c3)CC2)C1 [Example 38]
Data returned: 7.70

1 = O=C(Nc1cccnc1)N1CC2(CCN(Cc3cccc(Oc4cccc(Br)c4)c3)CC2)C1 [Example 122]
2 = O=C(Nc1cccnc1)N1CC2(CCN(Cc3cccc(Oc4ccccc4)c3)CC2)C1 [Example 119]
Data request: Field: entry with larger pIC50 (options 1 / 2 ). I would appreciate it if you answered with the label of your choice.
Data returned: 1

----------
measuredTarget: FAAH (Homo sapiens, UniProt O00519)
Sequence (O00519 whole entry): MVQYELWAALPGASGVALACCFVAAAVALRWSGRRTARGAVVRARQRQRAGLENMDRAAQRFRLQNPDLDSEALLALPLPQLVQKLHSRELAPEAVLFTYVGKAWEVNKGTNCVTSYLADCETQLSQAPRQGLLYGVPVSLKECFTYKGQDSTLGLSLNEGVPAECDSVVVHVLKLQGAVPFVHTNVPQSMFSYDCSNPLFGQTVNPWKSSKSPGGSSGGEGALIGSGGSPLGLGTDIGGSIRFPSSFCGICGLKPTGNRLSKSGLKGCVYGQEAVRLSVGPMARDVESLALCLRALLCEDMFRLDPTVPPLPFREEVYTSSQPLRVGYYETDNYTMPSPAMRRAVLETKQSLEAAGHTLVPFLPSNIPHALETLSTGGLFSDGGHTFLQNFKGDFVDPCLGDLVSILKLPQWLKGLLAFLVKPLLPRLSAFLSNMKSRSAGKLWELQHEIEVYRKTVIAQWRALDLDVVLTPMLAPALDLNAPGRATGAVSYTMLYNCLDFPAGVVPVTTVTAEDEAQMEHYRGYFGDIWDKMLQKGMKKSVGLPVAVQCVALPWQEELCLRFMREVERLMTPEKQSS
testName: Assay Method 1: human FAAH assay (3H-anandamide hydrolysis in cell homogenate)
Assay type: biochemical
Parameters: expressed in transfected cells; host or cells: SK-N-MC cells stably transfected with human FAAH cDNA (G418 selection); alternatively T84 cell pellets
testParameters: read-out: Assay 1 IC50
Counter-ions that a name gives are not always drawn.
measureName: pIC50
// scale note: pIC50 = -log10(conc_M); give the bare number

Data request: Which pIC50 is reported for this compound? O=C(Nc1ccc(-n2nccn2)nc1)N1CCC2(CCN(Cc3cccc(Oc4ccc(Cl)cc4)c3)CC2)CC1 [Example 14]
Data returned: 7.52

Below: the item to evaluate.
Data request: Which pIC50 is reported for this compound? O=C(Nc1cc[nH]n1)N1CC2(CCN(Cc3cccc(Oc4ccc(Cl)cc4)c3)CC2)C1 [Example 56, trifluoroacetic acid salt]
Data returned: 5.43

----------
measuredTarget: Rat FAAH (Rattus norvegicus)
Construct: expressed in transfected cells; host or cells: SK-N-MC cells stably transfected with rat FAAH cDNA (G418 selection)
testName: Assay Method 2: rat FAAH assay (3H-anandamide hydrolysis in cell homogenate)
Format: biochemical
testParameters: read-out: Assay 2 IC50
pIC50: −log10 of the molar value. Structures can show the parent of a compound that is named as a salt.
measureName: pIC50

Data request: Which pIC50 is reported for this compound? `O=C(Nc1cnc2ccccn12)N1CC2(CCN(Cc3cccc(Oc4ccc(Cl)cc4)c3)CC2)C1`
Data returned: 8.00

Data request: Which pIC50 is reported for this compound? O=C(Nc1noc2cccnc12)N1CC2(CCN(Cc3cccc(Oc4ccc(Cl)cc4)c3)CC2)C1 [Example 67, trifluoroacetic acid salt]
Data returned: 8.00

Data request: Which pIC50 is reported for this compound? `O=C(Nc1ccc(-n2nccn2)nc1)N1CCC2(CCN(Cc3cccc(Oc4ccc(Cl)cc4)c3)C2)CC1`
Data returned: 7.22

1 = O=C(Nc1cccnc1)N1CCCC2(CCN(Cc3cccc(Oc4ccc(Cl)cc4)c3)C2)C1 (stereo not shown)
2 = COc1nccc(NC(=O)N2CC3(CCN(Cc4cccc(Oc5ccc(Cl)cc5)c4)CC3)C2)n1 [Example 72, trifluoroacetic acid salt]
Data request: Field: entry with larger pIC50 (options 1 / 2 ). I would appreciate it if you answered with the label of your choice.
Data returned: 2

I = O=C(Nc1cnc(-c2ccccc2)nc1)N1CC2(CCN(Cc3cccc(Oc4ccc(Cl)cc4)c3)CC2)C1 [Example 83, trifluoroacetic acid salt]
II = O=C(Nc1cccnc1)N1CC2(CCN(Cc3cccc(C#Cc4ccccc4)c3)CC2)C1
III = O=C(Nc1cnccc1C(F)(F)F)N1CC2(CCN(Cc3cccc(Oc4ccc(Cl)cc4)c3)CC2)C1
IV = O=C(Nc1ccc(-n2nccn2)nc1)N1CCC2(CCCN(Cc3cccc(Oc4ccc(Cl)cc4)c3)C2)CC1
Data request: Highest pIC50 first, then in falling order down to the smallest. Show the ranking through the labels, in the order asked for.
Data returned: I, III, IV, II
(I: 7.70, III: 7.40, IV: 6.30, II: 5.10)
